- Test system: NCI-H1876 tumor spheroid viability
- Test details: Anticancer human tumor NCI-H1876 cell line growth inhibition; active = viability on the fitted dose curve at most 10% of control; inactive = the rest;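 note: spheroids exposed to compounds for seven days before the viability read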
- Assay context: second compound 31.6 µM; first compound 0.949 µM; spheroids with HUVEC and MSC
- Experimental: Multicellular complex tumor spheroid response to DNA repair inhibitors in combination with DNA-damaging drugs This study explores the anticancer activities of DNA-damaging drugs and inhibitors of DNA damage repair, both as single agents and in combinations. […] Twenty-six patient-derived or established malignant cell lines were evaluated representing sarcoma, melanoma, small cell lung cancer (SCLC), non-small cell lung cancer (NSCLC), as well as bladder, ovarian and pancreatic cancers. […]
Outcome codes: True for active, False for inactive

molecule="Cc1sc2c(c1C)C(c1ccc(Cl)cc1)=NC(CC(=O)Nc1ccc(O)cc1)c1nnc(C)n1-2 (centres undefined) + Cn1nnc2c(C(N)=O)ncn2c1=O" target_system="NCI-H1876 tumor spheroid viability" cat=False
molecule="O=C(c1cc(Cc2n[nH]c(=O)c3ccccc23)ccc1F)N1CCN(C(=O)C2CC2)CC1 + Cn1nnc2c(C(N)=O)ncn2c1=O" target_system="NCI-H1876 tumor spheroid viability" cat=False
molecule="CNCc1ccc(-c2cc(-c3nc(-c4ccc(S(=O)(=O)C(C)C)cc4)cnc3N)on2)cc1 + Cn1nnc2c(C(N)=O)ncn2c1=O" target_system="NCI-H1876 tumor spheroid viability" cat=False
molecule="Cn1ncnc1[C@H]1c2n[nH]c(=O)c3cc(F)cc(c23)N[C@@H]1c1ccc(F)cc1 + Cn1nnc2c(C(N)=O)ncn2c1=O" target_system="NCI-H1876 tumor spheroid viability" cat=True

Cited source for all entries: PubChem BioAssay AID1845207
